Target chain: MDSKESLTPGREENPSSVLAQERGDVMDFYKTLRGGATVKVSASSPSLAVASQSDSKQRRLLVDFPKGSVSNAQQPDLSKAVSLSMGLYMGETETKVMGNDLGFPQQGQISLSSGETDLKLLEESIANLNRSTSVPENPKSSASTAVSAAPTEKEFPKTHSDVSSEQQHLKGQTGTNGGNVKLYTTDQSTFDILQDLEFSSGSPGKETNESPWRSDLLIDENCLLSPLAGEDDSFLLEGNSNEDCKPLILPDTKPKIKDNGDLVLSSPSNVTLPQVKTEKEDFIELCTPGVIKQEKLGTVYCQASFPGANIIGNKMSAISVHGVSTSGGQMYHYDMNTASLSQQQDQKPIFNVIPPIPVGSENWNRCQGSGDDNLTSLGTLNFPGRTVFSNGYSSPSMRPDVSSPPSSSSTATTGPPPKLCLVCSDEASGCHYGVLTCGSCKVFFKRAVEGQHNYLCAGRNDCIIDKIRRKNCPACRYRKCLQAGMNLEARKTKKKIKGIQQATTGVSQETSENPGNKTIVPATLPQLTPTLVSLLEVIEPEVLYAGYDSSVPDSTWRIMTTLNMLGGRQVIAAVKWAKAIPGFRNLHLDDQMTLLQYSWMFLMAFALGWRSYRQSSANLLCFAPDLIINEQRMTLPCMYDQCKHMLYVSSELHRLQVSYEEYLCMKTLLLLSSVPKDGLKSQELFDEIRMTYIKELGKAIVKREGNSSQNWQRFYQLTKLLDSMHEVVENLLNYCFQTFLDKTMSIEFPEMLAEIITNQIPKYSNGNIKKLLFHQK
MEASURED PROPERTY: Ki (nM)
Number in nM, nothing else.

# get_value(readout='Ki', item= CC(=O)OC1(C(C)=O)CCC2C3CC(C)C4=CC(=O)CCC4(C)C3CCC21C (configuration not stated) )
43
